Assignment: determine reported MIC for the given compounds.
- Test system: K. oxytoca GN10650
- TEST_NAME: agar plate dilution method, MIC against K. oxytoca GN10650
- Type: cell-based
- COND: Klebsiella oxytoca; K. oxytoca GN10650 (lactamase-producing strain); 10^6 CFU/ml, 37° C., 16 hours; read-out: Minimum Inhibitory Concentration (MIC)
Supply the numeric figure in µg/mL, leaving out any unit text.

Request: For Nc1nc(/C(=N/OCc2ccccc2)C(=O)NC2C(=O)N3C(C(=O)[O-])=C(CSc4cc[n+](CC(=O)O)cc4)CSC23)cs1 (stereo not drawn) [Example 2] , what is its reported MIC?
Response: 12.5

Request: What value of MIC has been reported for the following compound? C=C(O/N=C(\C(=O)NC1C(=O)N2C(C(=O)[O-])=C(CSc3cc[n+](CC(=O)O)cc3)CSC12)c1csc(N)n1)C(=O)O (stereo not drawn) [Example 1]
Response: 0.2

Request: MIC lookup needed for Nc1nc(/C(=N/OC(C(=O)O)c2ccccc2)C(=O)NC2C(=O)N3C(C(=O)[O-])=C(CSc4cc[n+](CC(=O)O)cc4)CSC23)cs1 (stereo not drawn) [Example 3] , thanks.
Response: 0.78
